Test system: OVCAR-3
Test: OVCAR3 CTG assay
Format: cell-based
Details: Homo sapiens, OVCAR-3, 144 h; CellTiter-Glo, 6 days incubation
QUANTITY MEASURED: IC50

The examples below pair each entry with its known result.
[[record]]
compound = "[2H]C([2H])([2H])N1CCCOCC2(C(F)(F)F)CCN(CC2)c2cc(NS(=O)(=O)CCO)ccc2C(=O)Nc2cc(C)nc1n2 [EX44]"
quantity_measured = "IC50"
result_value = "10 to 100 nM"

[[record]]
compound = "CNS(=O)(=O)c1ccc2c(c1)N1CCC(C)(CC1)COCCCN(C)c1nc(C)cc(n1)NC2=O [EX16]"
quantity_measured = "IC50"
result_value = "100 to 1000 nM"

[[record]]
compound = "[2H]C([2H])([2H])N1CCCCC2(C(F)(F)F)CCN(CC2)c2cc(NS(=O)(=O)CCO)ccc2C(=O)Nc2cccc1n2 [EX63]"
quantity_measured = "IC50"
result_value = "100 to 1000 nM"


Please find the next compound below.
Recorded IC50 of Cc1cc2nc(n1)NCC(C)COCC1(C#N)CCN(CC1)c1cc(NS(=O)(=O)CCO)ccc1C(=O)N2 (stereo not shown) [EX42] , please. 10 to 100 nM

* * *

Field: IC50. Provide a value for each of the compounds that follow.
Molecular target: Kif18A (Homo sapiens, UniProt Q8NI77)
Sequence (Q8NI77 1-898): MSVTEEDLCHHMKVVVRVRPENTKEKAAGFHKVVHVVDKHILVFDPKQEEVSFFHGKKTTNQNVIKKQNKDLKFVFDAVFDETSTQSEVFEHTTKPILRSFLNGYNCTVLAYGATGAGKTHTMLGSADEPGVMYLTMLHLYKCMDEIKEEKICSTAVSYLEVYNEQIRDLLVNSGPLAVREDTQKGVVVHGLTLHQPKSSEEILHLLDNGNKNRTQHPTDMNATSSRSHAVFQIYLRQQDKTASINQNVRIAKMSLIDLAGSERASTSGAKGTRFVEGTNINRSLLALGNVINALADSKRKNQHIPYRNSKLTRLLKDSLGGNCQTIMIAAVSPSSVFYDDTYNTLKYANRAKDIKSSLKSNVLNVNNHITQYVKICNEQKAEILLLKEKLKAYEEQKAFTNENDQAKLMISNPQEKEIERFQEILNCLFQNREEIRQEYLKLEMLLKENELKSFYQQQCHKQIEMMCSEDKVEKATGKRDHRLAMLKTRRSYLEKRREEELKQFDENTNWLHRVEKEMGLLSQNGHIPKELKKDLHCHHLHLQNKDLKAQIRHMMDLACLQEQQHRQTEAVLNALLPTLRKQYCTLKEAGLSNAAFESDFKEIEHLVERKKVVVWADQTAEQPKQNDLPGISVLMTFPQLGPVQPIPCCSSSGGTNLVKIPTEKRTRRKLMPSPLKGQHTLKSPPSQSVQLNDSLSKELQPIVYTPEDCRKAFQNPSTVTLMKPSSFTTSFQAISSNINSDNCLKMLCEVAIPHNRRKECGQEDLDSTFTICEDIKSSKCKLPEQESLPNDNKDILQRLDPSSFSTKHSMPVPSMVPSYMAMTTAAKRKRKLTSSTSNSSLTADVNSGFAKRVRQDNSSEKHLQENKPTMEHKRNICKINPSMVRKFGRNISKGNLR

The examples below pair each entry with its known result.
[[record]]
smiles_string = "Cc1cc2nc(n1)NCCCOCC1(C)CCN(CC1)c1cc(NS(=O)(=O)CCO)ccc1C(=O)N2"
result_value = "10 to 100 nM"

[[record]]
smiles_string = "CC12CCN(CC1)c1cc(NS(=O)(=O)CCO)ccc1C(=O)Nc1cccc(n1)OCCOC2"
result_value = "10 to 100 nM"

[[record]]
smiles_string = "Cc1cc2nc(n1)N(C)C[C@@H](C)COCC1(C)CCN(CC1)c1cc(NS(=O)(=O)CCO)ccc1C(=O)N2"
result_value = "10 to 100 nM"

[[record]]
smiles_string = "Cc1cc2nc(n1)N1CCO[C@H](COCC3(C(F)F)CCN(CC3)c3cc(NS(=O)(=O)CCO)ccc3C(=O)N2)C1"
result_value = "10 to 100 nM"

[[record]]
smiles_string = "CN1CCCOCC2(C)CCN(CC2)c2cc(NS(=O)(=O)CCO)ccc2C(=O)Nc2cccc(n2)C1=O"
result_value = "100 to 1000 nM"


Fill in IC50 for each of the 3 compounds listed.
1. CN1CCCOCC2(C(F)(F)F)CCN(CC2)c2nc(NS(=O)(=O)CCO)ccc2C(=O)Nc2cccc1n2
2. Cc1cc2nc(n1)NCCOCCC1(C)CCN(CC1)c1cc(NS(=O)(=O)CCO)ccc1C(=O)N2
3. Cc1cc2nc(n1)NCCCOCC1(C)CCN(CC1)c1cc(S(=O)(=O)NC(C)(C)C)ccc1C(=O)N2

1: < 10 nM; 2: 10 to 100 nM; 3: 10 to 100 nM

* * *

System: OVCAR-3
Test: OVCAR3 CTG assay
Assay type: cell-based
Conditions: Homo sapiens, OVCAR-3, 144 h; CellTiter-Glo, 6 days incubation
QUANTITY MEASURED: IC50

The examples below pair each entry with its known result.
[[record]]
molecule = "Cc1cc2nc(n1)N(C)CCOCC1(C)CCN(CC1)c1cc(NS(=O)(=O)CCO)ccc1C(=O)N2 [EX04]"
result_value = "10 to 100 nM"

[[record]]
molecule = "Cc1cc2nc(n1)NCCCOCC1(C)CCN(CC1)c1cc(NS(=O)(=O)CCO)ccc1C(=O)N2 [EX12]"
result_value = "10 to 100 nM"

[[record]]
molecule = "C[C@H]1CCCC2(C(F)(F)F)CCN(CC2)c2cc(NS(=O)(=O)CCO)ccc2C(=O)Nc2cccc(n2)NC1 [EX79-B]"
result_value = "< 10 nM"


Recorded IC50 of Cc1cc2nc(n1)N(CC(F)(F)F)CCCOCC1(C)CCN(CC1)c1cc(NS(=O)(=O)CCO)ccc1C(=O)N2 [EX26] , please. 1000 to 10000 nM

* * *

Field: IC50. Provide a value for each of the molecules that follow.
Tested on: OVCAR-3
Test: OVCAR3 CTG assay
Type: cell-based
Settings: Homo sapiens, OVCAR-3, 144 h; CellTiter-Glo, 6 days incubation

The examples below pair each entry with its known result.
[[record]]
smiles_string = "Cc1cc2nc(n1)NC[C@@H](C(F)(F)F)COCC1(C)CCN(CC1)c1cc(NS(=O)(=O)CCO)ccc1C(=O)N2"
result_value = "0.01 to 0.1 µM"

[[record]]
smiles_string = "CN1CCCOCC2(C(F)(F)F)CCN(CC2)c2cc(NS(=O)(=O)CCO)ccc2C(=O)Nc2ccnc1n2"
result_value = "0.01 to 0.1 µM"

[[record]]
smiles_string = "CCS(=O)(=O)Nc1ccc2c(c1)N1CCC(C(F)(F)F)(CC1)COC[C@H](C)CNc1cccc(n1)NC2=O"
result_value = "< 0.01 µM"


Please find the next molecule below.
Recorded IC50 of CN1CCOCC2(C)CCN(CC2)c2cc(NS(=O)(=O)CCO)ccc2C(=O)Nc2cccc(n2)C1=O , please. 0.1 to 1 µM

* * *

Test system: OVCAR-3
Assay: OVCAR3 CTG assay
Assay type: cell-based
Conditions: Homo sapiens, OVCAR-3, 144 h; CellTiter-Glo, 6 days incubation
Field: IC50. Provide a value for each of the compounds that follow.

The examples below pair each entry with its known result.
[[record]]
compound = "Cc1cc2nc(n1)N1CCO[C@H](CCCC3(C(F)(F)F)CCN(CC3)c3cc(NS(=O)(=O)CCO)ccc3C(=O)N2)C1 [EX111-A]"
quantity_measured = "IC50"
result_value = "100 to 1000 nM"

[[record]]
compound = "CO[C@@H]1CNc2nc(C)cc(n2)NC(=O)c2ccc(NS(=O)(=O)CCO)cc2N2CCC(C(F)(F)F)(CC2)COC1 [EX46-B]"
quantity_measured = "IC50"
result_value = "10 to 100 nM"

[[record]]
compound = "Cc1cc2nc(n1)NCCCOCC1(C(F)(F)F)CCN(CC1)c1cc(NS(=O)(=O)CCO)ccc1C(=O)N2 [EX17]"
quantity_measured = "IC50"
result_value = "< 10 nM"

[[record]]
compound = "[2H]C([2H])([2H])N1CCCOCC2(C(F)(F)F)CCN(CC2)c2cc(S(=O)(=O)NC(C)(C)C)ccc2C(=O)Nc2cccc1n2 [EX69]"
quantity_measured = "IC50"
result_value = "10 to 100 nM"

[[record]]
compound = "C[C@@H]1CNc2cccc(n2)NC(=O)c2ccc(NS(=O)(=O)CCO)cc2N2CCC(C(F)(F)F)(CC2)COC1 [EX56-B]"
quantity_measured = "IC50"
result_value = "< 10 nM"

[[record]]
compound = "Cc1cc2nc(n1)NCC1(CC1)COCC1(C(F)(F)F)CCN(CC1)c1cc(NS(=O)(=O)CCO)ccc1C(=O)N2 [EX43]"
quantity_measured = "IC50"
result_value = "< 10 nM"

[[record]]
compound = "CC1CCCC2(C(F)(F)F)CCN(CC2)c2cc(NS(=O)(=O)CCO)ncc2C(=O)Nc2cccc(n2)NC1 (single isomer, unassigned) [EX100-B]"
quantity_measured = "IC50"
result_value = "< 10 nM"

[[record]]
compound = "O=C1Nc2ccc(=O)n(n2)CCCCCC2(C(F)(F)F)CCN(CC2)c2cc(NS(=O)(=O)CCO)ccc21 [EX65]"
quantity_measured = "IC50"
result_value = "100 to 1000 nM"

[[record]]
compound = "Cc1cc2nc(n1)NC/C=C\\COCC1(C(F)(F)F)CCN(CC1)c1cc(NS(=O)(=O)CCO)ccc1C(=O)N2 [EX51]"
quantity_measured = "IC50"
result_value = "10 to 100 nM"

[[record]]
compound = "CC12CCN(CC1)c1cc(NS(=O)(=O)CCO)ccc1C(=O)Nc1cc(C(F)(F)F)nc(n1)NCCCOC2 [EX39]"
quantity_measured = "IC50"
result_value = "10 to 100 nM"


Fill in IC50 for each of the 3 compounds listed.
1. CN1CCCOCC2(C(F)(F)F)CCN(CC2)c2nc(NS(=O)(=O)CCO)ccc2C(=O)Nc2cccc1n2 [EX72]
2. Cc1cc2nc(n1)NCCCCOCC1(C(F)(F)F)CCN(CC1)c1cc(NS(=O)(=O)CCO)ccc1C(=O)N2 [EX59]
3. Cc1cc2nc(n1)NC/C=C/COCC1(C(F)(F)F)CCP(=O)(CC1)c1cc(NS(=O)(=O)CCO)ccc1C(=O)N2 [EX52]

1: 100 to 1000 nM; 2: 10 to 100 nM; 3: 1000 to 10000 nM

meta.source: patent US20250340569A1
